- Test system: D. rerio embryos
- test: D. rerio embryotoxicity "photoactivation" assay (ring-closed photoform in darkness, then in situ photoconversion)
- Assay type: in vivo, Danio rerio
- cond: ring-closed photoform applied to embryos at 3 dpf; 24 h in the dark, sealed vials, E3 medium, 0.2% DMSO; value ± STD
Starred links: 1 amine or outer side, 2 acyl side, 3 side chain; linkers in the order of their positions; H or OH if unused. Positions of bridges follow the written chain, without caps; N, C: chain ends. Non-standard residues stand in square brackets, D forms with d. Residues, ends and D or L forms follow the SMILES beside them. X2 = Cc1sc(C(=O)[C@@H]2CCCN2[*:2])cc1C1=C(c2cc(C(=O)[*:1])sc2C)CCC1; Leu(3R-OH) = CC(C)[C@@H](O)[C@H](N)C(=O)O; X1 = CCCCN([C@@H](CC(C)C)C(=O)[*:2])[*:1]; Orn = NCCC[C@H](N)C(=O)O
We begin with a simple list: items and their reported LD50 (closed)^24h.
Hey, just the number and the unit after it is fine.

Past entries and their recorded results:
1. Cc1sc2cc1C1=C(CCC1)c1cc(sc1C)C(=O)[C@@H]1CCCN1C(=O)[C@H](CC(C)C)NC(=O)[C@H](CCCCN)NC(=O)[C@H](C(C)C)NC(=O)[C@H](CCCCN)NC(=O)[C@H](CC(C)C)NC(=O)[C@@H]1CCCN1C(=O)[C@@H](Cc1ccccc1)NC(=O)[C@H](C(C)C)NC(=O)[C@H](CCCCN)NC(=O)[C@H](CC(C)C)NC(=O)[C@H](CCCCN)NC(=O)[C@H](C(C)C)NC2=O [Peptide 16] (VKLKV[dF]PLKVKL; linker N-C via X2) = 6.0 ± 0.1 µg/mL
2. CCCCN1C(=O)[C@@H](Cc2ccccc2)NC(=O)[C@H](CC(C)C)NC(=O)[C@H](CCCN)NC(=O)[C@H]([C@@H](C)CC)NC(=O)c2cc(c(C)s2)C2=C(CCC2)c2cc(sc2C)C(=O)[C@@H]2CCCN2C(=O)[C@H](CC(C)C)NC(=O)[C@H](CCCN)NC(=O)[C@H]([C@@H](C)CC)NC(=O)[C@@H]1CC(C)C [Peptide 11] (I[Orn]L[dF][X1]I[Orn]L; linker N-C via X2) = 4.4 ± 0.2 µg/mL

Entry CC[C@H](C)[C@@H]1NC(=O)c2cc(c(C)s2)C2=C(CCC2)c2cc(sc2C)C(=O)[C@@H]2CCCN2C(=O)[C@H](CC(C)C)NC(=O)[C@H](CCCN)NC(=O)[C@H]([C@@H](C)CC)NC(=O)[C@@H]2CCCN2C(=O)[C@H]2CCCN2C(=O)[C@H](CC(C)C)NC(=O)[C@H](CCCN)NC1=O [Peptide 9] (I[Orn]L[dP]PI[Orn]L; linker N-C via X2) : reported LD50 (closed)^24h = ?
9.1 ± 2.7 µg/mL

Next molecule: Cc1sc2cc1C1=C(CCC1)c1cc(sc1C)C(=O)[C@@H]1CCCN1C(=O)[C@H](C(C)C)NC(=O)[C@H](CCCCN)NC(=O)[C@H](C(C)C)NC(=O)[C@@H](CCCCN)NC(=O)[C@H](CC(C)C)NC(=O)[C@@H]1CCCN1C(=O)[C@@H](Cc1ccccc1)NC(=O)[C@H](C(C)C)NC(=O)[C@H](CCCCN)NC(=O)[C@H](CC(C)C)NC(=O)[C@H](CCCCN)NC(=O)[C@H](C(C)C)NC2=O [Peptide 17] (VKLKV[dF]PL[dK]VKV; linker N-C via X2)
9.9 ± 0.1 µg/mL

Next molecule: Cc1sc2cc1C1=C(CCC1)c1cc(sc1C)C(=O)[C@@H]1CCCN1C(=O)[C@H](C(C)C)NC(=O)[C@H](CCCN)NC(=O)[C@H](C(C)C)NC(=O)[C@@H]1CCCN1C(=O)[C@@H](Cc1ccccc1)NC(=O)[C@H](C(C)C)NC(=O)[C@H](CCCN)NC(=O)[C@H]([C@H](O)C(C)C)NC2=O [Peptide 12] ([Leu(3R-OH)][Orn]V[dF]PV[Orn]V; linker N-C via X2)
77.0 ± 19.4 µg/mL

Where these numbers come from: paper PMC6964649
